# Tested on: LG0703-F948-PDC complex spheroid viability
# assay procedure: Anticancer human tumor LG0703-F948-PDC patient-derived lung adenocarcinoma cell line growth inhibition [RAS]
# run conditions: second compound 0.03 µM; first compound 0.316 µM; hits give low values
Listing of recorded viability, T/C by entry.

Example compounds with recorded viability, T/C:
compound	viability, T/C
CC(C)NCC(C(=O)N1CCN(c2ncnc3c2C(C)CC3O)CC1)c1ccc(Cl)cc1 (stereo unspecified) + CCn1c(-c2cc(N3CCN(C)CC3)cnc2C(C)OC)c2c3cc(ccc31)-c1csc(n1)CC(NC(=O)C1CC1C)C(=O)N1CCCC(N1)C(=O)OCC(C)(C)C2	7.73%
C=CC(=O)Nc1cc(Nc2nccc(-c3cn(C)c4ccccc34)n2)c(OC)cc1N(C)CCN(C)C + CCn1c(-c2cccnc2C(C)OC)c2c3cc(ccc31)N1CCOC(CC(NC(=O)C(C(C)C)N(C)C(=O)C3(F)CCN(C(=O)C#CC(C)(C)N(C)C)CC3)C(=O)N3CCCC(N3)C(=O)OCC(C)(C)C2)C1	17.4%
CC1(O)CCCC1n1c(=O)c(C(F)F)cc2cnc(NC3CCN(S(C)(=O)=O)CC3)nc21 (stereo unspecified) + CCn1c(-c2cccnc2C(C)OC)c2c3cc(ccc31)N1CCOC(CC(NC(=O)C(C(C)C)N(C)C(=O)C3(F)CCN(C(=O)C#CC(C)(C)N(C)C)CC3)C(=O)N3CCCC(N3)C(=O)OCC(C)(C)C2)C1	90%
C[C@@H](NC(=O)c1ncnc(N)c1Cl)c1ncc(C(=O)Nc2cc(C(F)(F)F)c(Cl)cn2)s1 + CCn1c(-c2cccnc2C(C)OC)c2c3cc(ccc31)N1CCOC(CC(NC(=O)C(C(C)C)N(C)C(=O)C3(F)CCN(C(=O)C#CC(C)(C)N(C)C)CC3)C(=O)N3CCCC(N3)C(=O)OCC(C)(C)C2)C1	88.4%
C=CC(=O)N1CCN(c2nc(OCC3CCCN3C)nc3c(F)c(-c4nc(N)cc(C)c4C(F)(F)F)c(Cl)cc23)C(C)C1 (stereo unspecified) + CCn1c(-c2cc(N3CCN(C)CC3)cnc2C(C)OC)c2c3cc(ccc31)-c1csc(n1)CC(NC(=O)C1CC1C)C(=O)N1CCCC(N1)C(=O)OCC(C)(C)C2	18.8%

// switching to the query compound
IN: Can you look up viability, T/C on LG0703-F948-PDC complex spheroid viability for CC(=O)OC12COC1CC(O)C1(C)C(=O)C(O)C3=C(C)C(OC(=O)C(O)C(NC(=O)OC(C)(C)C)c4ccccc4)CC(O)(C(OC(=O)c4ccccc4)C21)C3(C)C (stereo unspecified) + CCn1c(-c2cccnc2C(C)OC)c2c3cc(ccc31)N1CCOC(CC(NC(=O)C(C(C)C)N(C)C(=O)C3(F)CCN(C(=O)C#CC(C)(C)N(C)C)CC3)C(=O)N3CCCC(N3)C(=O)OCC(C)(C)C2)C1 ?
OUT: 36.5%

* * *

# Tested on: LG0703-F948-PDC complex spheroid viability
# assay procedure: Anticancer human tumor LG0703-F948-PDC cell line growth inhibition [RAS];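 further: spheroids exposed to agents for 7 days; 100% = DMSO vehicle wells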
# run conditions: second compound 0.0949 µM; first compound 0.1 µM; hits give low values
Catalogue of viability, T/C values
The reply should contain only the number, in %.

compound	viability, T/C, %
C[C@@H](NC(=O)c1ncnc(N)c1Cl)c1ncc(C(=O)Nc2cc(C(F)(F)F)c(Cl)cn2)s1 + CCn1c(-c2cc(N3CCN(C)CC3)cnc2C(C)OC)c2c3cc(ccc31)-c1csc(n1)CC(NC(=O)C1CC1C)C(=O)N1CCCC(N1)C(=O)OCC(C)(C)C2	9.99

Note: attention shifts to another entry.
IN: Any idea what its viability, T/C is? The compound is CC1(O)CCCC1n1c(=O)c(C(F)F)cc2cnc(NC3CCN(S(C)(=O)=O)CC3)nc21 (configuration not stated) + CCn1c(-c2cc(N3CCN(C)CC3)cnc2C(C)OC)c2c3cc(ccc31)-c1csc(n1)CC(NC(=O)C1CC1C)C(=O)N1CCCC(N1)C(=O)OCC(C)(C)C2
OUT: 14
